Species: Rattus norvegicus
Test: Open TG-GATES - Regimen: Single
Type: toxicity, organism-based, Sprague-Dawley
Set-up: regimen Single, gender Male, age 6 weeks
Conditions: in vivo, po, 0 mg/kg, 6 h, tissue Plasma, route gavage, dose level Control
READOUT: Cl (meq/L)
Unit meq/L implied. Number only.

Take a look at these entries with their results.
COC(=O)C1=C(C)NC(C)=C(C(=O)OC)C1c1ccccc1[N+](=O)[O-]    107.4
CC(C)NNC(=O)c1ccncc1    105.8
CN(C)CCC(c1ccc(Cl)cc1)c1ccccn1 (stereo not given)    106.6
CNC(=C[N+](=O)[O-])NCCSCc1ccc(CN(C)C)o1    102.8

Turning now to a further compound:
Enquiry: Quote Cl reported for CCCc1cc(=O)[nH]c(=S)[nH]1 please.
Return: 105.2

Cited source for all entries: ChEMBL document CHEMBL3885861
